tested on: Lactobacillus paracasei; experiment: growth AUC relative to DMSO control (median of replicates) (fraction); higher = more growth (less inhibition), active = hit call of the paper; settings: 20 µM; 24 h
Please enter condition met where growth AUC is greater than or equal to 1, and condition not met where it is lower.

Does N#Cc1nn(-c2c(Cl)cc(C(F)(F)F)cc2Cl)c(N)c1SC(F)(F)F have a reported growth AUC of at least 1? condition met

Threshold query (growth AUC >= 1) on CP(=O)(O)CC(=O)O condition not met

I'd appreciate it if you could say whether CN(C)C(=O)Nc1cccc(OC(=O)NC(C)(C)C)c1 has growth AUC at least equal to 1. condition not met

Could you please find out whether CCC(C)c1ccccc1OC(=O)NC (stereo not drawn) has growth AUC that meets 1 or exceeds it? condition not met

State whether the measured growth AUC reaches 1, counting equality as reaching it, for CCNS(=O)(=O)C(F)(F)C(F)(F)C(F)(F)C(F)(F)C(F)(F)C(F)(F)C(F)(F)C(F)(F)F condition not met

Has CN(C)C(=O)C(c1ccccc1)c1ccccc1 a recorded growth AUC greater than or equal to 1? condition not met

Hi team, for O=C(NC(=O)c1c(F)cccc1F)Nc1ccc(Cl)c(Oc2ncc(C(F)(F)F)cc2Cl)c1 , is the recorded growth AUC at or above 1? condition not met

Would you say COc1cc(OC)nc(NC(=O)NS(=O)(=O)c2ncccc2C(=O)N(C)C)n1 shows growth AUC at minimum 1? condition not met

Quick check: does O=P(OC(CCl)CCl)(OC(CCl)CCl)OC(CCl)CCl have growth AUC greater than or equal to 1? condition met

Say whether O=P(Oc1ccccc1)(Oc1ccccc1)Oc1ccccc1 shows growth AUC of 1 or more. condition not met

API: above_or_equal(metric=growth AUC, cutoff=1) for item CN1CSC(=S)N(C)C1 condition met

Please tell me: is the compound N#CN=C1SCCN1Cc1ccc(Cl)nc1 at or over 1 in terms of growth AUC? condition not met

Could you verify whether the entry O=c1c2cc(F)ccc2nc(-n2cncn2)n1-c1ccc(Cl)cc1Cl shows growth AUC of no less than 1? condition not met

Could you tell me if the measured growth AUC of CCCCCCCCSC(=O)Oc1cc(Cl)nnc1-c1ccccc1 reaches 1 or more? condition met

Form field: growth AUC at least 1? Entry: Oc1ccc(-c2ccccc2)cc1 condition not met

Hi team, for CCOP(=O)(OCC)OP(=O)(OCC)OCC , is the recorded growth AUC at or above 1? condition not met

Hi team, for Cc1ccc2nc3sc(=O)sc3nc2c1 , is the recorded growth AUC at or above 1? condition not met

Identify whether the reported growth AUC of the following compound is 1 or greater: CCSC(C)CC1CC(=O)C(/C(CC)=N/OC/C=C/Cl)=C(O)C1 (mixture of isomers) condition met

Hi team, for CCCOCCN(C(=O)CCl)c1c(CC)cccc1CC , is the recorded growth AUC at or above 1? condition met

Record Nc1c([N+](=O)[O-])ccc(Oc2ccccc2)c1Cl ; criterion: growth AUC no lower than 1. Met? condition not met

Assess whether reported growth AUC for Cc1cc(C)nc(NC(=O)NS(=O)(=O)c2ccccc2C(=O)OC2COC2)n1 sits at 1 or higher. condition met

Is the recorded value of growth AUC equal to or greater than 1 for this compound? O=S(=O)(Oc1ccc(Cl)cc1)c1ccc(Cl)cc1 condition not met

Does the reported growth AUC for CC[C@H](C)[C@H]1O[C@]2(C=C[C@@H]1C)C[C@@H]1C[C@@H](C/C=C(\C)[C@@H](O[C@H]3C[C@H](OC)[C@@H](O[C@H]4C[C@H](OC)[C@@H](NC)[C@H](C)O4)[C@H](C)O3)[C@@H](C)/C=C/C=C3\CO[C@@H]4[C@H](O)C(C)=C[C@@H](C(=O)O1)[C@]34O)O2.O=C(O)c1ccccc1 fall at or above the 1 mark? condition not met

Please check the record CN=C=S and state if its growth AUC is at or above 1. condition met

Determine whether this compound has growth AUC no lower than 1: O=C1C2(Cl)C3(Cl)C4(Cl)C(Cl)(Cl)C5(Cl)C3(Cl)C1(Cl)C5(Cl)C24Cl (stereo not drawn) condition not met

Answer whether growth AUC of CN(C)S(=O)(=O)N(SC(F)(Cl)Cl)c1ccccc1 is greater than or equal to 1. condition met

# check: growth AUC of CCOc1nc(NC)nc(NC(=O)NS(=O)(=O)c2ccccc2C(=O)OC)n1 is greater than or equal to 1 condition met
